# assay_procedure: E. coli DRC41 culture turbidity changes, primary screen, E. coli filamentation inducer project, strain DRC41, OD650, 48 h (AID 1152);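 note: E. coli MC1000 strain DRC41 lacking acrAB efflux pump and sulA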
# cond: E. coli DRC41 (acrAB sulA), higher = more signal, called active from +8 up or from −8 down
Consider the following compounds; for each one, report its z-score.
Give a plain numeric answer without units written out.

Asked: Recorded z-score of "[N-]=[N+]=NCc1ccccc1[C@@H]1OC(c2ccc(OCCCO)cc2)=N[C@]1(Cc1ccccc1)C(=O)NCc1ccccc1" , please.
Given back: 0.251

Asked: Recorded z-score of "C=C(CCCC)C(=O)CC[C@H](OC(=O)c1cccnc1)c1ccc(CO)o1" , please.
Given back: -0.348

Asked: Recorded z-score of "COC(=O)[C@@]1(Cc2ccc(OC)cc2)[C@H]2c3cc(C(=O)N4CCCC4)n(CCc4ccc(OC)c(Br)c4)c3C[C@H]2CN1C(=O)c1ccccc1" , please.
Given back: -0.536

Asked: Recorded z-score of NC(=O)N1C(=O)C2C(C1=O)C1C=C(CCCO)C2C(c2ccc(CN3CCCC3)cc2)N1Cc1cccc(OC(F)(F)F)c1 (centres undefined) , please.
Given back: -0.267

Asked: Recorded z-score of C=CCC(OC(C)=O)[C@@H]1[C@@H](N(Cc2ccc(-c3cccc(C(F)(F)F)c3)o2)C(=O)c2cccc3ccccc23)c2cc(OCCCO)ccc2N1C(=O)c1ccc2ccccc2n1 (some centres undefined) , please.
Given back: -0.855

Asked: Recorded z-score of CC1CC/C=C\[C@H]2OC34C=CCN(c5ccc(Cl)cc5)C(=O)[C@H]3N(CCCO)C(=O)[C@]4(C)C2C(=O)O1 (some centres undefined) , please.
Given back: -0.836

Asked: Recorded z-score of "CCCC=C(CCC)[C@@H](NS(=O)(=O)c1ccc(Cl)cc1)c1ccccc1" , please.
Given back: -2.04

Asked: Recorded z-score of "CCCCC=C[C@@H](NC(=O)c1ccc(C(F)(F)F)cc1)c1ccccc1" , please.
Given back: -1.96

Asked: Recorded z-score of "C=CCNC(=O)[C@@H]1[C@H]2C(=O)O[C@H](c3ccccc3)[C@H](c3ccccc3)N2[C@H](c2ccc(O)cc2)[C@@]12C(=O)Nc1ccc(C#CC3(O)CCCCCC3)cc12" , please.
Given back: -0.418

Asked: Recorded z-score of "CN1C(=O)[C@]2(CCC(=O)OC(C)(C)C)N=C(c3ccc(OCCCO)cc3)O[C@@H]2c2ccccc21" , please.
Given back: 0.504

Asked: Recorded z-score of "CO[C@H]1O[C@H](CO)[C@@H](OC(=O)Nc2ccccc2)[C@@H]2OC(=O)[C@H](Cc3ccccc3)C/C=C/C[C@@H](Cc3ccccc3)C(=O)O[C@@H]12" , please.
Given back: 0.863

Asked: Recorded z-score of "C=CCOC(=O)[C@@H]1[C@H]2C(=O)O[C@H](c3ccccc3)[C@H](c3ccccc3)N2[C@H](c2ccc(OCCOC(=O)[C@H]3C[C@H]4C(=O)NCC(=O)N4[C@H]3c3ccc(O)cc3)cc2)[C@@]12C(=O)Nc1ccc(I)cc12" , please.
Given back: -0.707

Asked: Recorded z-score of CC(C)(C)N1CC=CC23O[C@@H]4/C=C\CCCOC(=O)C4[C@H]2C(=O)N(CCCCCCO)[C@@H]3C1=O (some centres undefined) , please.
Given back: 1.88

Asked: Recorded z-score of CCCCCCCCCCC(O)C1C=CC2C(=O)N(C)C(=O)C2N1N1CCCCC1 (centres undefined) , please.
Given back: -1.83
